# target-or-test-system: SARS-COV-2 RBD extracellular domain expressed with a C-terminal mouse IgG2a Fc (SARS-CoV-2)
# assay-text: Biacore SPR, mAb captured on anti-hFc, 37 C
readout: t½ (h)
// units = h; emit number, no label

mAb14285 (antibody, V domains shown) VH: QVQLVQSGAEVKKPGASVKVSCKASGYTFTGYFIHWVRQAPGQGLEWMGWISPISGGTNYAQKFQGRVTVTRDTSITTAYMELSRLTSDDTAVYHCAREGGTWKGDFDYWGQGTLVTVSS VL: QSALTQPASVSGSPGQSITISCTGTSSDVESYNLVSWYQQHPGKAPKLMIYEGSKRPSGVSNRFSGSKSGNTASLTISGLQAEDEADYYCSSYAGSSTWVFGGGTKLTVLG : 0.187

Next up:
Task: # query: t½ of entry mAb13459 (antibody, V domains shown) VH: EVQLVESGGGLVQPGRSLRLSCAASGFTFDDYAMHWVRQAPGKGLEWVSGISWNSGSIGYADSVKGRFTISRDNAKNSLYLQMNSLRAEDTALYYCAKDIGITTPYWGQGTLVTVSS VL: AIQMTQSPSSLSASVGDRVTITCRASQDIRNDLGWYQQKPGKAPKLLIYSASSLQTGVPSRFSGSGSGTDFTLTISSLHPEDFATYYCLQDYNYVWTFGQGTKVEIKR
Output: 2.08
